# Assay Setup: 333.15 K; 101.33 kPa; Liquid; Cone and plate viscometry
// boundary case: viscosity equal to 60 mPa·s maps to not satisfied; strictly smaller maps to satisfied

Some solved entries appear below for comparison.
Molecule: CCCCCCCCCCCCCC[P+](CCCCCC)(CCCCCC)CCCCCC.O=[N+]([O-])c1c[n-]cn1 [trihexyl(tetradecyl)phosphonium 4-nitroimidazolide]
Label: not satisfied
--
Molecule: CC(=O)[O-].CCCCCCn1cc[n+](C)c1 [3-hexyl-1-methylimidazolium acetate]
Label: not satisfied
--
Molecule: CCCC[P+](CC)(CC)CC.Cc1ncc([N+](=O)[O-])[n-]1 [butyltriethylphosphonium 2-methyl-5-nitroimidazolide]
Label: satisfied
--
Molecule: CCCCCCCCCCCCCC[P+](CCCCCC)(CCCCCC)CCCCCC.N#Cc1nc[n-]c1C#N [trihexyl(tetradecyl)phosphonium 4,5-dicyanoimidazolide]
Label: not satisfied
--
Molecule: CCCCCCCCCCCCCC[P+](CCCCCC)(CCCCCC)CCCCCC.Cc1ncc([N+](=O)[O-])[n-]1 [trihexyl(tetradecyl)phosphonium 2-methyl-5-nitroimidazolide]
Label: not satisfied

Quick check: does CCC[n+]1ccn(C)c1C.O=[N+]([O-])c1cn[n-]c1 [1,2-dimethyl-3-propylimidazolium 4-nitropyrazolide] have viscosity under 60 mPa·s?
not satisfied

Quick check: does CCCCCCCCCC[P+](CC)(CC)CC.O=[N+]([O-])c1cn[n-]c1 [decyltriethylphosphonium 4-nitropyrazolide] have viscosity under 60 mPa·s?
satisfied

====

For each record, write down the corresponding mass density.
# Assay Setup: 318.15 K; 101.33 kPa; Liquid; Vibrating tube method
Answers are plain numbers, in kg/m3.

// for each compound in input: emit mass density
1. CC(=O)[O-].CCCCCCn1cc[n+](C)c1 [3-hexyl-1-methylimidazolium acetate]
2. CCC=Cn1cc[n+](C)c1C.O=[N+]([O-])c1cn[n-]c1 [1-but-1-enyl-2,3-dimethylimidazolium 4-nitropyrazolide]
3. CCCCCCCCCCCCCC[P+](CCCCCC)(CCCCCC)CCCCCC.O=[N+]([O-])c1c[n-]cn1 [trihexyl(tetradecyl)phosphonium 4-nitroimidazolide]
4. CCCCCCCCCCCCCC[P+](CCCCCC)(CCCCCC)CCCCCC.Clc1nc[n-]c1Cl [trihexyl(tetradecyl)phosphonium 4,5-dichloroimidazolide]
5. CCCCCCCCCCCCCC[P+](CCCCCC)(CCCCCC)CCCCCC.Cc1ncc([N+](=O)[O-])[n-]1 [trihexyl(tetradecyl)phosphonium 2-methyl-5-nitroimidazolide]
6. CCCC[P+](CC)(CC)CC.Cc1ncc([N+](=O)[O-])[n-]1 [butyltriethylphosphonium 2-methyl-5-nitroimidazolide]

[1004.5, 1167.6, 928.4, 952.2, 926.9, 1053.6]

// for each compound in input: emit mass density
1. CCCCCCC[P+](CC)(CC)CC.O=[N+]([O-])c1cn[n-]c1 [triethylheptylphosphonium 4-nitropyrazolide]
2. CC(=O)[O-].CCCCCCCCCCCCCC[P+](CCCCCC)(CCCCCC)CCCCCC [trihexyl(tetradecyl)phosphonium acetate]
3. CCCCCCCCCC[P+](CC)(CC)CC.O=[N+]([O-])c1cn[n-]c1 [decyltriethylphosphonium 4-nitropyrazolide]
4. CC[P+](CC)(CC)COCCOC.O=[N+]([O-])c1cn[n-]c1
5. CCCCCC[n+]1ccn(C)c1.O=S(=O)([N-]S(=O)(=O)C(F)(F)F)C(F)(F)F

[1026, 873.7, 999.1, 1125.5, 1354.8]
